Source: ChEMBL document CHEMBL1795321

# Target Or System: Endothelin receptor type A (Oryctolagus cuniculus)
# Assay Summary: Inhibition of endothelin A receptor in New Zealand white rabbit aortic rings assessed as inhibition of endothelin-1-induced vascular contraction at 10^-6 M
Activity calls are given as the source filed them. No cut-off for these calls is given here.
Property: inhibition

The cases that follow already have their inhibition on record.
Compound: Cc1cc(C)nc(OC(C(=O)OCc2ccccc2)C(CO)(c2ccccc2)c2ccccc2)n1 (centres undefined)
inhibition: inactive

Compound: Cc1cc(C)nc(OC(C(=O)O)C(C#N)(c2ccccc2)c2ccccc2)n1 (racemic)
inhibition: 42.2%

Compound: Cc1cc(C)nc(OC(C(=O)O)C(CO)(c2ccccc2)c2ccccc2)n1 (centres undefined)
inhibition: 23.2%

Compound: Cc1cc(C)nc(OC(C(=O)O)C(COC(=O)CCc2ccccc2)(c2ccccc2)c2ccccc2)n1 (centres undefined)
inhibition: inactive

Compound: CCCCCCCC(=O)OCC(c1ccccc1)(c1ccccc1)C(Oc1nc(C)cc(C)n1)C(=O)O (centres undefined)
inhibition: 5.61%

Note down inhibition recorded for Cc1cc(C)nc(OC(C(=O)O)C(Cc2ccccc2)(c2ccccc2)c2ccccc2)n1 (centres undefined)
11.8%

Supply reported inhibition belonging to this compound: Cc1cc(C)nc(OC(C(=O)O)C(COC(=O)C(C)(C)C)(c2ccccc2)c2ccccc2)n1 (centres undefined)
inactive

Determine its reported inhibition: Cc1cc(C)nc(OC(C(=O)O)C(COCc2ccccc2)(c2ccccc2)c2ccccc2)n1 (centres undefined)
inactive

Retrieve inhibition measured for Cc1cc(C)nc(OC(C(=O)O)C(COC(=O)CC(C)C)(c2ccccc2)c2ccccc2)n1 (centres undefined) and print it.
21.8%

* * *

# Target Or System: Endothelin receptor type A (Oryctolagus cuniculus) (UniProt A5A8K3)
# Sequence (A5A8K3 as listed by the source): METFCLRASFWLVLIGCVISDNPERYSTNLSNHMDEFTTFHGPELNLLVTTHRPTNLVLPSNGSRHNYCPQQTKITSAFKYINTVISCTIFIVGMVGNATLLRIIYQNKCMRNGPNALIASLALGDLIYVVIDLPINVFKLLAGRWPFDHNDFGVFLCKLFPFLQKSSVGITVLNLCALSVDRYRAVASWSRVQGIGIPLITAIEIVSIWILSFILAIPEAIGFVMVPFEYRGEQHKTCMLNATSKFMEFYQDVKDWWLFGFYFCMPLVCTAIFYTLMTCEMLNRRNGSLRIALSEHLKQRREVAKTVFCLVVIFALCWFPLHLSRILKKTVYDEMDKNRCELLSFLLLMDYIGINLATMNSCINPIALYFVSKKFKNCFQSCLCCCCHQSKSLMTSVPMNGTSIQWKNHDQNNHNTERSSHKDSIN
# Assay Summary: Inhibition of endothelin A receptor in New Zealand white rabbit aortic rings assessed as inhibition of endothelin-1-induced vascular contraction at 10^-6 M
Active and inactive are the calls of the source. No cut-off for these calls is given here.
Property: inhibition

Completed entries (count: 4):
Compound: Cc1cc(C)nc(OC(C(=O)O)C(COC(=O)c2ccncc2)(c2ccccc2)c2ccccc2)n1 (stereo not given)
inhibition: 13.2%
--
Compound: CCCC(=O)OCC(c1ccccc1)(c1ccccc1)C(Oc1nc(C)cc(C)n1)C(=O)O (stereo not given)
inhibition: 1.11%
--
Compound: Cc1cc(C)nc(OC(C(=O)O)C(COC(=O)c2cccnc2)(c2ccccc2)c2ccccc2)n1 (stereo not given)
inhibition: 7.82%
--
Compound: Cc1cc(C)nc(OC(C(=O)O)C(COC(=O)OC(C)(C)C)(c2ccccc2)c2ccccc2)n1 (stereo not given)
inhibition: inactive

Field: next compound
Answer with the recorded inhibition of CCCCCC(=O)OCC(c1ccccc1)(c1ccccc1)C(Oc1nc(C)cc(C)n1)C(=O)O (stereo not given) only.
inactive

* * *

# Target Or System: Endothelin receptor type A (Oryctolagus cuniculus)
# Assay Summary: Inhibition of endothelin A receptor in New Zealand white rabbit aortic rings assessed as inhibition of endothelin-1-induced vascular contraction at 10^-6 M
Activity calls are given as the source filed them. The rule behind the calls is not given here.
Property: inhibition

Solved entries:
Compound: CCCCOCC(c1ccccc1)(c1ccccc1)C(Oc1nc(C)cc(C)n1)C(=O)O (centres undefined)
inhibition: 15.1%

Compound: COC(=O)OCC(c1ccccc1)(c1ccccc1)C(Oc1nc(C)cc(C)n1)C(=O)O (centres undefined)
inhibition: 3.4%

Compound: CCC(=O)OCC(c1ccccc1)(c1ccccc1)C(Oc1nc(C)cc(C)n1)C(=O)O (centres undefined)
inhibition: 21.7%

Compound: CCC(C)(C)C(=O)OCC(c1ccccc1)(c1ccccc1)C(Oc1nc(C)cc(C)n1)C(=O)O (centres undefined)
inhibition: inactive

Compound: COc1ccc(C(=O)OCC(c2ccccc2)(c2ccccc2)C(Oc2nc(C)cc(C)n2)C(=O)O)cc1 (centres undefined)
inhibition: inactive

Compound: COCC(c1ccccc1)(c1ccccc1)C(Oc1nc(C)cc(C)n1)C(=O)O (centres undefined)
inhibition: inactive

Compound: CC(=O)OCC(c1ccccc1)(c1ccccc1)C(Oc1nc(C)cc(C)n1)C(=O)O (centres undefined)
inhibition: 9.64%

Compound: Cc1cc(C)nc(OC(C(=O)O)C(COC(=O)N(C)C)(c2ccccc2)c2ccccc2)n1 (centres undefined)
inhibition: inactive

Provide measured inhibition value, entry: CCOCC(c1ccccc1)(c1ccccc1)C(Oc1nc(C)cc(C)n1)C(=O)O (centres undefined)
20.6%

* * *

# Target Or System: Endothelin receptor type A (Oryctolagus cuniculus)
# Assay Summary: Inhibition of endothelin A receptor in New Zealand white rabbit aortic rings assessed as inhibition of endothelin-1-induced vascular contraction at 10^-6 M
Calls of active or inactive are those of the source. The rule behind the calls is not given here.
Property: inhibition

Some solved cases for reference:
Compound: Cc1cc(C)nc(OC(C(=O)O)C(COC(=O)CCCC(=O)O)(c2ccccc2)c2ccccc2)n1 (centres undefined)
Target Or System: Endothelin receptor type A (Oryctolagus cuniculus)
inhibition: 3.47%
//
Compound: CCCOCC(c1ccccc1)(c1ccccc1)C(Oc1nc(C)cc(C)n1)C(=O)O (centres undefined)
Target Or System: Endothelin receptor type A (Oryctolagus cuniculus)
inhibition: inactive
//
Compound: Cc1cc(C)nc(OC(C(=O)O)C(COC(=O)Cc2ccccc2)(c2ccccc2)c2ccccc2)n1 (centres undefined)
Target Or System: Endothelin receptor type A (Oryctolagus cuniculus)
inhibition: inactive
//
Compound: CCCCC(=O)OCC(c1ccccc1)(c1ccccc1)C(Oc1nc(C)cc(C)n1)C(=O)O (centres undefined)
Target Or System: Endothelin receptor type A (Oryctolagus cuniculus)
inhibition: 5.88%
//
Compound: Cc1cc(C)nc(OC(C(=O)O)C(COC(=O)OCC(C)C)(c2ccccc2)c2ccccc2)n1 (centres undefined)
Target Or System: Endothelin receptor type A (Oryctolagus cuniculus)
inhibition: 13.7%
//
Compound: Cc1cc(C)nc(OC(C(=O)O)C(COC(=O)CCC(=O)O)(c2ccccc2)c2ccccc2)n1 (centres undefined)
Target Or System: Endothelin receptor type A (Oryctolagus cuniculus)
inhibition: inactive

# return inhibition of Cc1cc(C)nc(OC(C(=O)O)C(COC(=O)c2ccccc2)(c2ccccc2)c2ccccc2)n1 (centres undefined) (system: Endothelin receptor type A (Oryctolagus cuniculus))
8.09%

Tell me its inhibition on Endothelin receptor type A (Oryctolagus cuniculus): Cc1cccc(C(=O)OCC(c2ccccc2)(c2ccccc2)C(Oc2nc(C)cc(C)n2)C(=O)O)c1 (centres undefined)
inactive

Param request: inhibition | system Endothelin receptor type A (Oryctolagus cuniculus) | item Cc1ccc(S(=O)(=O)OCC(c2ccccc2)(c2ccccc2)C(Oc2nc(C)cc(C)n2)C(=O)O)cc1 (centres undefined)
inactive
